What follows is literature data on IC50 for Fibroblast growth factor receptor 1 (Homo sapiens, UniProt P11362).
recorded_metric: IC50

>>> measurement("COc1cc(OC)c(F)c(-c2ncc3c(-c4ccc5c(c4)CC(C(=O)N(C)C)O5)n[nH]c3n2)c1F (stereo not drawn)")
"< 100 nM"
>>> measurement("Cc1cccc(Nc2ncnc(Nc3ccc4[nH]ccc4c3)n2)c1")
"< 1260 nM"
>>> measurement("COc1cc2nccc(Oc3ccc(Nc4c(NCCN(C)C)c(=O)c4=O)c(Cl)c3)c2cc1C(N)=O")
"200 to 1000 nM"
>>> measurement("CCOCCCOc1cc2nccc(Oc3ccc(NC(=S)NC4CC4)c(Cl)c3)c2cc1C(N)=O")
"200 to 1000 nM"
>>> measurement("COc1cc(CCc2cnc3[nH]c(-c4cnn(CCN5CCCCC5)c4)cc3n2)cc(OC)c1")
"< 100 nM"
>>> measurement("COCCNc1cc(NC(=O)N(CC2CCOC2)c2cccc(C=O)n2)ncc1C#N (racemic)")
"> 10000 nM"
>>> measurement("CONc1cc(NC(=O)N2CCCc3cc(CN4CCOCC4=O)c(C=O)nc32)ncc1C#N")
"> 10000 nM"
>>> measurement("C=CC(=O)Nc1cc(Cl)cc(F)c1Nc1ccc(/C=C(\\F)c2c(Cl)c(OC)cc(OC)c2Cl)cn1")
"3210 nM"
>>> measurement("CCNC(=S)Nc1ccc(Oc2ccnc3cc(OC)c(C(N)=O)cc23)c(F)c1Cl")
"< 50 nM"
>>> measurement("Cn1cncc1-c1ccc2c(Oc3ccc(NC(=O)NC4CC4)c(Cl)c3F)ccnc2c1")
"50 to 200 nM"
>>> measurement("N#Cc1cnc(NC(=O)N2CCCc3cc(CO)c(C=O)nc32)cc1NCC1CCCOC1 (racemic)")
"> 10000 nM"
>>> measurement("COc1cc(OC)c(Cl)c(-c2cc3[nH]nc(/C=C/c4cnn(C)c4)c3cn2)c1Cl")
"< 100 nM"
>>> measurement("CC(Oc1ccc2[nH]nc(/C=C(\\F)c3ccc(CNC4CCOCC4)nc3)c2c1)c1ccc(F)cc1Cl (stereo not drawn)")
"50 to 1000 nM"
>>> measurement("C=CC(=O)Nc1cccc(-c2cccc3cnc(Nc4ccc(N5CCN(CCO)CC5)c(F)c4F)nc23)c1")
"100 to 500 nM"
>>> measurement("COc1ccc(Nc2ncnc(-n3c(N)nc4ccccc43)n2)cc1OC")
"9630 to 12400 nM"
>>> measurement("CC#CC(=O)N1CCC(Nc2ncc3cc(-c4c(Cl)c(OC)cc(OC)c4Cl)ccc3n2)CC1")
"< 3 nM"
>>> measurement("CCCc1ccc(/C(=C2/C(=O)Nc3ccc(NC4CCN(CC)CC4)cc32)c2ncc[nH]2)cc1")
"< 50 nM"
>>> measurement("COc1cc2nccc(Oc3cc(Cl)c(NC(=S)NC4CC4)cc3F)c2cc1C(N)=O")
"200 to 1000 nM"
>>> measurement("COc1cc(Nc2ncnc(N3CCCc4ccccc43)n2)cc(OC)c1OC")
"< 1020 nM"
>>> measurement("COCCOc1ccc(Nc2ncc(F)c(Nc3ccc(NS(=O)(=O)c4c(F)c(F)c(F)c(F)c4F)cc3)n2)cc1")
"10 to 300 nM"
>>> measurement("CCN1CCC(Nc2ccc3c(c2)/C(=C(\\c2cccc(OC)c2)c2nc4ccccc4[nH]2)C(=O)N3)CC1")
"< 50 nM"
>>> measurement("COc1cc(Oc2ccnc3cc(OC)c(C(N)=O)cc23)ccc1NC(=S)NC1CC1")
"200 to 1000 nM"
>>> measurement("CS(=O)(=O)Nc1cc(-c2ncccc2F)cc(-n2cnc3cc(-c4cnn(CCN5CCOCC5)c4)ccc32)c1")
"9.3 nM"
>>> measurement("COc1ccc(Nc2ncnc(Nc3cc(OC)c(OC)c(OC)c3)n2)cc1O")
"1000 to 6010 nM"

---

What follows is literature data on IC50 for UniProt:P11362.
recorded_metric: IC50

>>> measurement("COc1ccc(Nc2ncnc(Nc3cccc(C)c3)n2)cc1OC")
"1190 to 7110 nM"
>>> measurement("COC(=O)c1ccc2c(c1)NC(=O)/C2=C(\\Nc1ccc2c(c1)CCN2C(=O)CN1CCN(C)CC1)c1ccccc1")
"100 nM"
>>> measurement("COc1cc(OC)c(F)c(-c2cc3[nH]nc(-c4ccc5c(c4)CN(C(C)CO)C5=O)c3cn2)c1F (stereo not drawn)")
"< 100 nM"
>>> measurement("CC(=O)Nc1cc(-c2ccc(C)o2)cc(-n2cnc3cc(-c4cnn(CCN5CCOCC5)c4)ccc32)c1")
"37 nM"
>>> measurement("CNC(=O)c1cc(C#N)cc(-c2cnn3cc(-c4cnn(C)c4)c(O[C@H]4CCOC4)nc23)c1")
"10 to 30 nM"
>>> measurement("COc1cc2nccc(Oc3ccc(Nc4c(NCc5ccncc5)c(=O)c4=O)c(Cl)c3)c2cc1C(N)=O")
"200 to 1000 nM"
>>> measurement("COc1cc(Nc2ncnc(Nc3ccc(Oc4ccccc4)cc3)n2)cc(OC)c1OC")
"< 898 nM"
>>> measurement("C=CC(=O)NCc1cc2c(cn1)CN(c1c(F)c(OC)cc(OC)c1F)C(=O)N2CC(C)C")
"30 to 200 nM"
>>> measurement("COc1cc(CCc2cnc3[nH]c(-c4cccc(N5CCNCC5)c4)cc3n2)cc(OC)c1")
"< 100 nM"
>>> measurement("COCCN1CCC(Nc2ccc3c(c2)/C(=C(\\c2cc(F)cc(F)c2)c2ncc[nH]2)C(=O)N3)CC1")
"< 50 nM"
>>> measurement("CC(Oc1ccc2[nH]nc(/C=C/c3cnc(CN4CCOCC4)nc3)c2c1)c1c(Cl)cncc1Cl (stereo not drawn)")
"≤ 10 nM"
>>> measurement("O=Cc1ccc2c(n1)N(C(=O)Nc1ccc(C(F)(F)F)cn1)CCO2")
"> 10000 nM"
>>> measurement("CC(Oc1ccc2[nH]nc(/C=C/c3ccc(CN4CCOCC4)cc3)c2c1)C1CCN(C)CC1 (stereo not drawn)")
"50 to 1000 nM"
>>> measurement("CCS(=O)(=O)Nc1cc(-c2ccc(F)cc2F)cc(-c2cnn3cc(-c4cnn(C)c4)ccc23)c1")
"2.86 nM"
>>> measurement("NC(=O)c1ccc(Nc2ncnc(Nc3cc(-c4ccco4)n[nH]3)n2)cc1")
"< 1100 nM"
>>> measurement("Cn1cnc(-c2ccc3c(Oc4ccc(NC(=O)NC5CC5)c(Cl)c4F)ccnc3c2)c1")
"< 50 nM"
>>> measurement("CCC(Nc1nc2ccccc2n1-c1ncnc(Nc2cc(OC)c(OC)c(OC)c2)n1)c1ccccc1 (stereo not drawn)")
"< 782 nM"
>>> measurement("COc1cc(CCc2cnc3[nH]c(-c4cnn(CCN5CCC(O)CC5)c4)cc3n2)cc(OC)c1")
"< 100 nM"
>>> measurement("CC(Oc1ccc2[nH]nc(/C=C/c3ccc(CN4CCCC(CO)C4)cc3)c2c1)c1c(Cl)cncc1Cl (stereo not drawn)")
"≤ 10 nM"
>>> measurement("C=CC(=O)Nc1cccc(C)c1Nc1ncc(/C(F)=C/c2c(Cl)c(OC)cc(OC)c2Cl)cn1")
"> 10000 nM"
>>> measurement("C[C@@H](Oc1ccc2[nH]nc(/C=C(\\F)c3ccc(CN[C@H]4C[C@H](O)C4)nc3)c2c1)c1c(Cl)cncc1Cl")
"10 to 50 nM"
>>> measurement("COc1cc(Nc2ncnc(Nc3ccc4ccccc4c3)n2)cc(OC)c1OC")
"> 11200 nM"
>>> measurement("CC(Oc1ccc2[nH]nc(-c3ccc(C(=O)N4CCN(C(C)C)CC4)cc3)c2c1)c1c(Cl)cncc1Cl (stereo not drawn)")
"50 to 1000 nM"
>>> measurement("CCN(CC)CCNC(=O)c1cc2c(Oc3ccc(NC(=S)NC4CC4)c(Cl)c3)ccnc2cc1OC")
"200 to 1000 nM"
>>> measurement("COc1cc(Nc2ncnc(Nc3cccc(F)c3)n2)cc(OC)c1OC")
"1080 to 6460 nM"
>>> measurement("C=CC(=O)N1CCC(Nc2ncc3cc(-c4c(Cl)c(OC)cc(OC)c4Cl)ccc3n2)C(C)C1 (stereo not drawn)")
"6 nM"
>>> measurement("COc1cc(CCc2cnc3[nH]c(-c4ccnc(N5CCNCC5)c4)cc3n2)cc(OC)c1")
"< 100 nM"

---

What follows is literature data on pIC50 for Fibroblast growth factor receptor 1 (Homo sapiens, UniProt P11362).
pIC50: −log10 of the molar value.
recorded_metric: pIC50

>>> measurement("COc1cc(OC)c(F)c(N2Cc3cnc(NCc4cnn(C)c4)cc3C3(CC3)C2=O)c1F")
"> 7.00"
>>> measurement("COc1cc(Nc2ncnc(-n3c(NCc4cccs4)nc4ccccc43)n2)cc(OC)c1OC")
"> 6.09"
>>> measurement("COc1cc(Nc2ncnc(Nc3ccc4c(ccn4Cc4ccccc4)c3)n2)cc(OC)c1OC")
"5.03 to 5.14"
>>> measurement("CC(Oc1ccc2[nH]nc(/C=C/c3cc(N)c(CN4CCOCC4)cc3F)c2c1)c1c(Cl)cncc1Cl (centres unmarked)")
"6.00 to 7.30"
>>> measurement("CC(Oc1ccc2[nH]nc(-c3ccc(C(=O)N4CCN(C)CC4)cc3)c2c1)c1c(Cl)cncc1Cl (centres unmarked)")
"6.00 to 7.30"
>>> measurement("COc1cc(OC)c(Cl)c(-c2cc3[nH]nc(-c4ccc5c(c4)CN(C4CC4)C5=O)c3cn2)c1Cl")
"> 7.00"
>>> measurement("COc1cc(OC)c(F)c(N2Cc3cnc(N[C@H]4CC[C@H](O)CC4)cc3C3(CC3)C2=O)c1F")
"> 7.00"
>>> measurement("COc1cc(Nc2ncnc(-n3c(NCc4ccccc4F)nc4ccccc43)n2)cc(OC)c1OC")
"> 6.10"
